Target: BTK (Homo sapiens)
Sequence (Q06187 whole entry): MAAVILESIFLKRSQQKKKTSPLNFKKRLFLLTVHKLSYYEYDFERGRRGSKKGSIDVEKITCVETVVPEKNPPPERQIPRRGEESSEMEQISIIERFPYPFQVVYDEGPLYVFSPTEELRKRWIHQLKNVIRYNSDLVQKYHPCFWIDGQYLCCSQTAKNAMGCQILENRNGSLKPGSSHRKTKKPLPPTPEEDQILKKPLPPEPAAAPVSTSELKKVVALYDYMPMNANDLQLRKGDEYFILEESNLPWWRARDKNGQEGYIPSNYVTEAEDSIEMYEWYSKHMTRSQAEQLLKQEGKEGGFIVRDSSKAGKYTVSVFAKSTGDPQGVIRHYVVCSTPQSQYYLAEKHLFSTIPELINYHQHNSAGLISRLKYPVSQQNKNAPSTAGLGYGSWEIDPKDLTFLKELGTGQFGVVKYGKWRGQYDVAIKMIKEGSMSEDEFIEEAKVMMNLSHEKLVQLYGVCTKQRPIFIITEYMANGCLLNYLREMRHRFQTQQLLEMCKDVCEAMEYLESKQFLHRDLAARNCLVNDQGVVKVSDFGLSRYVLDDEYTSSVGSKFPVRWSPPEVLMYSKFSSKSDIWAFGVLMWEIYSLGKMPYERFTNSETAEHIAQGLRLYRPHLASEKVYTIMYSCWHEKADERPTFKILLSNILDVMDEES
Assay: Degradation of BTK protein in Namalwa cells (Western blot; DC50, Dmax)
Conditions: read-out: Dmax (BTK degradation)
Measured Attribute: Dmax

Compound	Readout Value
Nc1ncnc2c1c(-c1ccc(Oc3ccccc3)cc1)nn2C1CCN(CC2CC(N3CCN(c4ccc5c(c4)CN(C4CCC(=O)NC4=O)C5=O)CC3)C2)CC1 (stereo not drawn) [Compound 531]	> 90%
Nc1ncnc2c1c(-c1ccc(Oc3ccccc3)cc1)nn2C1CCN(C2CCN(CC3CN(c4ccc5c(c4)CN(C4CCC(=O)NC4=O)C5=O)C3)C2)CC1 (stereo not drawn) [Compound 426]	> 90%
Nc1ncnc2c1c(-c1ccc(Oc3ccccc3)cc1)nn2C1CCN(CCN2CCC(CC3CCN(c4ccc(NC5CCC(=O)NC5=O)cc4)CC3)CC2)CC1 (stereo not drawn) [Compound 559]	> 90%
NC1=NC=NC2C1C(c1ccc(Oc3ccccc3)cc1)=NN2C1CCCN(C2CN(C(=O)N3CC(C4CN(c5ccc6c(c5)CN(C5CCC(=O)NC5=O)C6=O)C4)C3)C2)C1 (stereo not drawn) [Compound 502]	> 90%
Nc1ncnc2c1c(-c1ccc(Oc3ccccc3)cc1)nn2C1CCN(CCN2CCC(CN3CCN(c4ccc5c(c4)CN(C4CCC(=O)NC4=O)C5=O)CC3)CC2)CC1 (stereo not drawn) [Compound 454]	> 50%
Nc1ncnc2c1c(-c1ccc(Oc3ccccc3)cc1)nn2C1CCN(CCOCCOCCN2CCC(c3ccc4c(c3)CN(C3CCC(=O)NC3=O)C4=O)CC2)CC1 (stereo not drawn) [Compound 419]	> 90%
